Test system: SEM cells
assay: cell viability relative to DMSO control; higher = less cytotoxic
particulars: RPMI 5 mM glucose + 10% FBS; 48 h; 0.00234 µM
quantityMeasured: cell viability (%)
Report the value in % with no unit label.

Check out these entries, answers already filled in.
>>> print(df.to_string())
                                   molecule  quantitymeasured  readoutvalue
0  CN1CCN(CCCN2c3ccccc3Sc3ccc(C(F)(F)F)cc32)CC1    cell viability          91.4
1  CN1CCN(CCOc2cc(OC3CCOCC3)c3c(Nc4c(Cl)ccc5c4OCO5)ncnc3c2)CC1    cell viability           120
2  Cc1nc(Nc2n[nH]c3c2CN(C(=O)N[C@H](CN(C)C)c2ccccc2)C3(C)C)c2sccc2n1    cell viability          85.9

Sure, the documented cell viability for Cc1ccc2c(c1)c1c(n2CCc2ccc(C)nc2)CCN(C)C1 is 117

Sure, the documented cell viability for CCOC(=O)Nc1ccc(NCc2ccc(F)cc2)nc1N is 121

Sure, the documented cell viability for COc1cccc2c1CCCC2CCCN1CCN(C2CCCCC2)CC1 (centres undefined) is 85.6

Sure, the documented cell viability for CC(C)C[C@H](NC(=O)[C@@H](O)[C@H](N)Cc1ccccc1)C(=O)O is 122

Sure, the documented cell viability for O=C(/C=C/c1ccc(O)cc1)c1ccc(O)cc1O is 122

Sure, the documented cell viability for Nc1ncnc2c1c(-c1cccc(OCc3ccccc3)c1)cn2C1CC(CN2CCCC2)C1 (centres undefined) is 113
